Test system: MRP1 cells, doxorubicin viability shift, 10 uM compound
Experiment: viability protection against doxorubicin, MRP-1 line – cell-based, doxorubicin EC50 shift, dose response (AID 844)
Entries annotated with measured fold increase in Dox EC50

[
  {
    "Compound": "N#Cc1nc(COc2ccccc2)oc1N1CCCC1",
    "fold increase in Dox EC50": 0.77
  },
  {
    "Compound": "Cc1cccc(-n2ncc3c(N4CC(C)CC(C)C4)ncnc32)c1 (centres undefined)",
    "fold increase in Dox EC50": 0.6
  },
  {
    "Compound": "Cc1nc(NC(=S)NC(=O)c2cccs2)sc1C(=O)N(C)C",
    "fold increase in Dox EC50": 1.04
  },
  {
    "Compound": "CCn1c(C)c(C)c2cc(C(=O)Nc3cccc(Cl)c3)ccc21",
    "fold increase in Dox EC50": 0.43
  },
  {
    "Compound": "Cc1ccccc1NC(=O)CC1SC(=O)N(c2ccccc2)C1=O (centres undefined)",
    "fold increase in Dox EC50": 1.35
  },
  {
    "Compound": "CCOC(=O)N1CCN(c2nc(-c3cccc(OC)c3)cc(C(F)(F)F)n2)CC1",
    "fold increase in Dox EC50": 1.11
  },
  {
    "Compound": "CCOC(=O)Cc1csc(NC(=O)c2c(-c3ccccc3)noc2C)n1",
    "fold increase in Dox EC50": 0.44
  },
  {
    "Compound": "CCOC(=O)C1CCCN(Cc2ccc(OC)cc2OC)C1 (centres undefined)",
    "fold increase in Dox EC50": 0.35
  },
  {
    "Compound": "Cc1ccc(OCc2nnc(SCC(=O)N3c4ccccc4Sc4ccc(Cl)cc43)o2)cc1",
    "fold increase in Dox EC50": 0.85
  },
  {
    "Compound": "O=C(/C(=C/O)N=Nc1ccccc1)c1ccncc1",
    "fold increase in Dox EC50": 1.4
  },
  {
    "Compound": "Cc1cccc(OCc2nc(-c3nonc3N)no2)c1C",
    "fold increase in Dox EC50": 0.78
  },
  {
    "Compound": "COc1ccc(-c2cc3nc(-c4ccccc4)cc(N4CCC5(CC4)OCCO5)n3n2)cc1",
    "fold increase in Dox EC50": 0.21
  },
  {
    "Compound": "CC(NC(=O)c1ccc(Br)cc1)c1ccc2c(c1)CCCC2 (centres undefined)",
    "fold increase in Dox EC50": 1.36
  },
  {
    "Compound": "COc1ccc(NC(=O)C(=O)N/N=C/c2cc(C)n(-c3cccc(Cl)c3Cl)c2C)c(OC)c1",
    "fold increase in Dox EC50": 1.43
  },
  {
    "Compound": "CCn1c(CNC(=O)COc2ccc(C(C)C)cc2)nnc1SCC(=O)Nc1ccccc1C(C)C",
    "fold increase in Dox EC50": 1.04
  },
  {
    "Compound": "COc1ccc(C(C)=O)cc1CSc1nnc(Nc2ccccc2C)s1",
    "fold increase in Dox EC50": 0.75
  },
  {
    "Compound": "CCN(CC)CCN(Cc1cc2cc(C)cc(C)c2[nH]c1=O)C(=S)NCc1ccco1",
    "fold increase in Dox EC50": 0.19
  },
  {
    "Compound": "O=C1/C(=C\\c2cccs2)N=C(c2cccs2)N1Nc1ccccc1",
    "fold increase in Dox EC50": 0.84
  },
  {
    "Compound": "c1ccc(OCCSc2nc3ccccc3[nH]2)cc1",
    "fold increase in Dox EC50": 1.03
  },
  {
    "Compound": "Cc1ccc2nc(NC(=O)CCNS(=O)(=O)c3cccs3)sc2c1",
    "fold increase in Dox EC50": 0.56
  },
  {
    "Compound": "Cc1cccc2cc(CN(Cc3cccs3)C(=S)NCc3ccco3)c(=O)[nH]c12",
    "fold increase in Dox EC50": 0.41
  },
  {
    "Compound": "COc1ccc(N2C(=O)CC(N3CCC(n4c(=O)[nH]c5ccccc54)CC3)C2=O)cc1 (centres undefined)",
    "fold increase in Dox EC50": 1.04
  },
  {
    "Compound": "O=C(NC(=S)Nc1ccccn1)c1cc(-c2ccccc2)nc2ccccc12",
    "fold increase in Dox EC50": 0.91
  },
  {
    "Compound": "O=C1c2ccsc2SCCN1Cc1c(Cl)cccc1Cl",
    "fold increase in Dox EC50": 1.19
  },
  {
    "Compound": "COc1ccccc1N1CCN(C(=O)COc2ccc(Cl)cc2)CC1",
    "fold increase in Dox EC50": 0.8
  },
  {
    "Compound": "Cc1cccc(C)c1-n1c(C)cc(/C=C2\\C(=O)NN(c3ccccc3)C2=O)c1C",
    "fold increase in Dox EC50": 0.63
  },
  {
    "Compound": "Cc1ccc(S(=O)(=O)N/N=C\\c2cn(-c3ccccc3)nc2-c2ccccc2)cc1",
    "fold increase in Dox EC50": 1.38
  },
  {
    "Compound": "O=C(CN1C(=O)S/C(=C\\c2ccc(Cl)cc2)C1=O)NNC(=O)c1ccccc1O",
    "fold increase in Dox EC50": 1.05
  },
  {
    "Compound": "COc1cc(/C=N/NC(=O)C23CC4CC(CC(C4)C2)C3)cc(Br)c1O",
    "fold increase in Dox EC50": 0.66
  },
  {
    "Compound": "O=C(COc1cccnc1[N+](=O)[O-])Nc1ccc2c(c1)OC(F)(F)O2",
    "fold increase in Dox EC50": 0.7
  },
  {
    "Compound": "COc1ccc(-c2nnc(SC(C)C(=O)Nc3cccc(Cl)c3)o2)cc1 (centres undefined)",
    "fold increase in Dox EC50": 0.74
  },
  {
    "Compound": "N#Cc1nc(COc2ccc(Br)cc2)oc1N1CCCCCC1",
    "fold increase in Dox EC50": 0.78
  },
  {
    "Compound": "C=C1c2cc(CC)ccc2NC(=O)N1c1ccc(C)cc1",
    "fold increase in Dox EC50": 0.44
  },
  {
    "Compound": "COc1ccc(OC)c(-c2cc(C(=O)Nc3c(C)nn(Cc4ccccc4C)c3C)no2)c1",
    "fold increase in Dox EC50": 0.65
  },
  {
    "Compound": "Cn1c(C(=O)NCc2ccccc2)cc2oc3ccccc3c21",
    "fold increase in Dox EC50": 1.46
  },
  {
    "Compound": "Cc1ccc(N/N=C(\\C#N)C(N)=S)c(C)c1",
    "fold increase in Dox EC50": 0.6
  },
  {
    "Compound": "C/C(=N\\NC(=O)CCc1c[nH]c2ccccc12)c1cccc([N+](=O)[O-])c1",
    "fold increase in Dox EC50": 0.8
  },
  {
    "Compound": "CC(C)CC(=O)n1sc(NC(=O)c2ccccc2)nc1=O",
    "fold increase in Dox EC50": 0.92
  },
  {
    "Compound": "C=CCNc1oc(COc2ccc(C)cc2)nc1C#N",
    "fold increase in Dox EC50": 0.66
  },
  {
    "Compound": "CCOC(=O)C1=C(C)Nc2ncnn2C1c1cccnc1 (centres undefined)",
    "fold increase in Dox EC50": 0.83
  },
  {
    "Compound": "O=C(Nc1ccn(Cc2ccccc2F)n1)c1ccc(COc2cc(Cl)ccc2Cl)o1",
    "fold increase in Dox EC50": 0.91
  },
  {
    "Compound": "Cc1ccc(Cl)cc1N1CCN(C(=O)c2cc3c(=O)n(C)c4ccccc4c3n2C)CC1",
    "fold increase in Dox EC50": 0.19
  },
  {
    "Compound": "CC1(C)O[C@@H]2C[C@H]3[C@@H]4C[C@H](F)C5=CC(=O)CC[C@]5(C)[C@H]4[C@@H](O)C[C@]3(C)[C@]2(C(=O)CO)O1",
    "fold increase in Dox EC50": 0.65
  },
  {
    "Compound": "O=C(O)CSC1c2ccccc2C(=O)N1Cc1ccccc1 (centres undefined)",
    "fold increase in Dox EC50": 0.82
  }
]

Source listed as PubChem BioAssay AID844.
